Hello, the source for this data is the kinase profiling compilation of Christmann-Franck et al. (2016), in case you need it.

biological target: UniProtKB P07947; experiment: radiometric filter-binding kinase assay; settings: compound 10.0 µM
Sequence (P07947 whole entry, looked up): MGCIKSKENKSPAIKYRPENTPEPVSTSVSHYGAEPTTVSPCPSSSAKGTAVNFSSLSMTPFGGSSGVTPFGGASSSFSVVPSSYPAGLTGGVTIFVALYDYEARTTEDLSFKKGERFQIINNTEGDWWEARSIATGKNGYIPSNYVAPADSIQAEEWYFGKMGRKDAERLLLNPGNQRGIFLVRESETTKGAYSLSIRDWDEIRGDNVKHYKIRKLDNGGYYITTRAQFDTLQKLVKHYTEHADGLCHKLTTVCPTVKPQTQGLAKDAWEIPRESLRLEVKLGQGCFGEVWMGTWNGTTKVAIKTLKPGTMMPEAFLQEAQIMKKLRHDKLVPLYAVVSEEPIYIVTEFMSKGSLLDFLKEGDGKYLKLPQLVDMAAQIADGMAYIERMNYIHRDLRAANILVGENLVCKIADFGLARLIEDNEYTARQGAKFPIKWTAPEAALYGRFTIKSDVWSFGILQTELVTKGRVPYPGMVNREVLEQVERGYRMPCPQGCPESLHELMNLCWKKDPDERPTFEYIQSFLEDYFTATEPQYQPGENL
Quantity: residual activity (%)

> print(dat)
                    structure.smiles.string  measured.value
1  O=C(O)c1cc(N=Nc2ccc(S(=O)(=O)Nc3ccccn3)cc2)ccc1O             103
2  NC(=O)c1cc(-c2ccnc(NC3CCCCC3)c2)nc(N2CCNCC2)c1              76

[1] O=c1c(O)c(-c2ccc(O)c(O)c2)oc2cc(O)c(O)c(O)c12
[2] O=S(=O)(c1ccc(F)c2nonc12)N1CCN(c2ncc(C(F)(F)F)cc2Cl)CC1
Q: Higher residual activity between 1 and 2 ? Select an item and report its label.
A: 2
(2: 105%, 1: 9%)

[a] CNc1nc(-c2ccc3c(N)n[nH]c3c2)cc(N2C[C@@H](C(=O)NC3CCCCC3)CC[C@H]2C)n1
[b] NC1(c2ccc(-c3nc4ccn5c(=O)[nH]nc5c4cc3-c3ccccc3)cc2)CCC1
Q: Identify the item whose residual activity is the smaller number: a or b Select an item and report its label.
A: b
(b: 68%, a: 98%)

###

target: MAPKAPK2 (human) (UniProt P49137); test: radiometric filter-binding kinase assay; conditions: compound 10.0 µM
Sequence (P49137 whole entry, looked up): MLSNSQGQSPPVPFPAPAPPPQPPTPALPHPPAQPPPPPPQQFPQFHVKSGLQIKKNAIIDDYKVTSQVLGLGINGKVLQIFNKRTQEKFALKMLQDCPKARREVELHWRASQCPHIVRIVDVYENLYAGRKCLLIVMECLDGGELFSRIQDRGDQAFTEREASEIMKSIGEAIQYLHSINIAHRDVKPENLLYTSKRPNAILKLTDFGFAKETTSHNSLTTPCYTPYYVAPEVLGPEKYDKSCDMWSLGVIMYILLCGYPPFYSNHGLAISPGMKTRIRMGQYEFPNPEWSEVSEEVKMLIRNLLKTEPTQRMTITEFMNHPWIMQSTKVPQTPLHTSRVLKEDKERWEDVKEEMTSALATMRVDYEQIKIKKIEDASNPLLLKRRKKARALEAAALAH
Quantity: residual activity (%)

Some compounds with known residual activity results, for comparison:
> print(dat)
                                   compound  measured.value
1  NS(=O)(=O)OC[C@@H]1C[C@@H](n2ccc3c(N[C@H]4CCc5ccccc54)ncnc32)C[C@@H]1O              93
2  COc1cc(C(=O)N2CCOCC2)c(F)cc1Nc1ncc(C(F)(F)F)c(NC2CC2)n1              97
3  NC(=O)c1cc2c(-c3cccc(-c4ccccc4)c3)cnc(N)c2s1              94
4  CCOC(=O)c1ccc(N2NC(=O)/C(=C/c3ccc([N+](=O)[O-])o3)C2=O)cc1              78
5  O=C(O)c1ccc(-c2c[nH]c3ncc(-c4ccccc4)cc23)cc1C1CCCC1              96

[a] c1ccc2c(-c3cnn4cc(-c5ccc(N6CCNCC6)cc5)cnc34)ccnc2c1
[b] NC(=O)c1cc(-c2ccnc(NC3CCCCC3)c2)nc(N2CCNCC2)c1
[c] O=C(O)c1cc(N=Nc2ccc(S(=O)(=O)Nc3ccccn3)cc2)ccc1O
Q: Would you mind ranking these compounds by ascending residual activity? Labels, requested order.
A: b, a, c
(b: 22%, a: 73%, c: 106%)

###

molecular target: EPHA4 (human); experiment: radiometric filter-binding kinase assay; settings: compound 1.0 µM
Quantity: residual activity (%)

> print(dat)
                                    molecule         system           quantity  measured.value
 1  Cc1cccc(-c2nn(C(=S)Nc3ccccc3)cc2-c2ccnc3ccccc23)n1  EPHA4 (human)  residual activity              98
 2  NC1(c2ccc(-c3nc4ccn5c(=O)[nH]nc5c4cc3-c3ccccc3)cc2)CCC1  EPHA4 (human)  residual activity             116
 3  FC(F)(F)c1ccc(-c2ccc(Oc3cncc4sc(-c5nn[nH]n5)cc34)cc2)cc1  EPHA4 (human)  residual activity             109
 4  O=C(Nc1nc2cc(C(F)(F)F)cc(NC3CC3)n2n1)c1cccnc1  EPHA4 (human)  residual activity              93
 5  CNc1nc(-c2ccc3c(N)n[nH]c3c2)cc(N2C[C@@H](C(=O)NC3CCCCC3)CC[C@H]2C)n1  EPHA4 (human)  residual activity              86
 6  O=C(NOCC(O)CO)c1ccc(F)c(F)c1Nc1ccc(I)cc1Cl (stereo unspecified)  EPHA4 (human)  residual activity              97
 7  COc1cc(C(=O)N2CCOCC2)c(F)cc1Nc1ncc(C(F)(F)F)c(NC2CC2)n1  EPHA4 (human)  residual activity              86
 8  c1ccc2c(-c3cnn4cc(-c5ccc(N6CCNCC6)cc5)cnc34)ccnc2c1  EPHA4 (human)  residual activity              83
 9  NCC(=O)Nc1ccc(-n2nc(C(F)(F)F)cc2-c2ccc3c(ccc4ccccc43)c2)cc1  EPHA4 (human)  residual activity              80
10  O=C(N[C@@H](COc1ccc2[nH]c(=O)[nH]c2c1)c1ccccc1)c1cccn(Cc2ccc(F)c(F)c2)c1=O  EPHA4 (human)  residual activity             113

[1] N#Cc1c(C2CCNCC2)cc(-c2c(O)cccc2OCC2CC2)nc1N
[2] Cc1ccc(Sc2cnc(Nc3cccc(Br)n3)s2)cc1C(=O)N1CCN(C(=O)CN)CC1
Q: Identify the item whose residual activity is the smaller number: 1 or 2 Select an item and report its label.
A: 2
